Tested on: AML samples (live leukemic cells from bone marrow or peripheral blood of patients)
Assay comment: Ex-vivo effect on AML patient samples (depletion of live leukemic cells, flow cytometry, Annexin V)
Assay type: cell-based, human
Condition parameters: Homo sapiens, 72 h, plates incubated for 72 hours
Measured EC50 accompanies every entry in the list below.

Which value of EC50 has been reported for Nc1nc(Cl)nc2c1ncn2[C@@H]1O[C@H](COP(=O)(O)NCc2ccccc2)C(O)C1F (stereo partly shown) in the records?
≤ 1000 nM

Which value of EC50 has been reported for COC(=O)COP(=O)(N[C@@H](CC(C)C)C(=O)OC)OC[C@H]1O[C@@H](n2cnc3c(N)nc(Cl)nc32)C(F)C1O (single isomer, unassigned) [drawing 659] in the records?
1000 to 10000 nM

Which value of EC50 has been reported for COC(=O)[C@H](CC(C)C)NP(=O)(N[C@@H](CC(C)C)C(=O)OC)OC[C@H]1O[C@@H](n2cnc3c(N)nc(Cl)nc32)C(F)C1O (stereo partly shown) in the records?
1000 to 10000 nM

Which value of EC50 has been reported for Cn1c(COP(=O)(NCc2ccccc2)OC[C@H]2O[C@@H](n3ccc(N)nc3=O)C(O)C2O)cnc1[N+](=O)[O-] (single isomer, unassigned) [drawing 666] in the records?
1000 to 10000 nM
